Reference source for all entries: PubChem BioAssay (NCI)

Tested on: MDA-MB-435 melanoma
Assay: NCI-60 one-dose screen, 48 h (100 = growth as untreated, 0 = no growth, -100 = all killed)
Details: 10 µM unless noted
Method: Growth inhibition of the MDA-MB-435 human Melanoma tumor cell line is measured as a screen for anti-cancer activity. Cells are grown in 96 well plates and exposed to the test compound for 48 hours. Compounds are tested at a single concentration, which is 10^-5 M for most compounds. The reported endpoint is percent growth (GI% or GIPRCNT), where numbers from 0 - 100% represent growth inhibition, and numbers from -100% - 0 represent cell death. […]
About 83,000 compounds went through this panel and 20% of them were active in at least one assay; those are over-represented in the sample as a whole.
Item-by-item account of growth
PROPERTY_LABEL: growth (%)

• Cc1ccc2c(c1)C(=O)/C(=C/c1ncc([N+](=O)[O-])n1C)O2 = -80.6
• COc1ccc2c(c1)nc(N)c1c3ccccc3cn21 = 2.56
• COc1cc(C2NC(c3ccc(Cl)cc3)C(C)/C(=N/NC(N)=S)C2C)cc(OC)c1OC (configuration not stated) = 107
• Nc1nc(N)c([N+](=O)[O-])c(=O)[nH]1 = 104
• c1cncc(CNc2ccccc2-c2nnc(Nc3ccc4c(c3)OCO4)o2)c1 = -28
• CCCCCCCC/C=C/CCCCCCCC1=NC(C)(C)CN1CC(C)O (configuration not stated) = 6
• Cc1cc2c(cc1C)Nc1sc(NC(=O)CN3CCN(C)CC3)nc1C(=O)N2 = 111
• Cc1nc(N)[nH]c(=O)c1C = 106
• CCOC(=O)c1ccccc1OC(=O)NNc1ccccc1 = 50
• CC(C)COCC(CN(Cc1ccccc1)c1ccccc1)N1CCCC1 (configuration not stated) = 72.4
• O=c1ccn(C2OC(CO)C(O)C2F)c(=O)[nH]1 (configuration not stated) = 107
• COc1ccc2[nH]c(-c3ccccc3)cc2c1 = 100
• COc1cc(/C=C/c2nnc(-c3cc(-c4ccccc4)n[nH]3)o2)cc(OC)c1OC = 102
• OCCOc1c(Cl)cc(Cl)cc1Cl = 103
• CN(CC(=O)N(Cc1ccc(C2CCCCC2)cc1)c1ccc(C(=O)O)cc1)S(=O)(=O)c1c(F)c(F)c(F)c(F)c1F = 68.3
• CCCCCCCCCCC[C@@H](C[C@H]1OC(=O)[C@H]1CCCCCC)OC(=O)[C@@H](CC(C)C)NC=O = 69
• O=C1OCCCCCCCCCC#Cc2ccccc21 = 104
• CC(=O)Oc1ccc(C23c4ccccc4C2(OC(C)=O)c2cc(OC(C)=O)ccc23)cc1 (configuration not stated) = 97.9
• CCC(CCC(C)C1CCC2C3CC=C4CC(O)CCC4(C)C3CCC12C)C(C)C (configuration not stated) (tested in a mixture with another compound) = 85
• NS(=O)(=O)c1ccc(NC2=C(Cl)C(=O)c3ccccc3C2=O)cc1 = 124
• Clc1ccc([C@@H]2C[C@@H]3Cc4cc(Br)c5ccccc5c4N2O3)c(Cl)c1 = 4.61
• CC(=O)c1ccc2c3c(n(C)c2c1)CCCC3 = 97.8

---

System: SR leukemia
Test: NCI-60 one-dose screen, 48 h (100 = growth as untreated, 0 = no growth, -100 = all killed)
Details: 10 µM unless noted
The panel holds about 83,000 compounds, 20% with a hit somewhere; the sample as a whole holds those more often.
Group membership follows growth per the scheme low group: < 20%; middle group: ≥ 20% and < 90%; high group: ≥ 90%

• CC(=O)NCCSC(=O)C(=O)SCCNC(C)=O = high group
• COc1ccc2nc(NC(=O)c3cc(-c4ccc(F)cc4)n4nc(-c5ccccc5)cc4n3)sc2c1 = middle group
• CCOc1cc(-c2ccc[nH]2)[nH]c1/C=C1\N=C(C)C(C(=O)OC)=C1C = low group
• O=C1C(Cl)=C(N=Nc2c(Cl)c(O)c3ccccc3c2O)C(=O)c2ccccc21 = middle group
• O=C(/C=C/c1cc2ccccc2[nH]c1=O)c1ccc(O)cc1 = low group
• COc1cc(/C=C/C(=O)N2CCN(C(=O)/C=C/c3ccccc3)CC2)cc(OC)c1OC = middle group
• CSc1ncc2ncn(C3OC(CO)C(O)C3O)c2n1 (stereo not given) = high group
• NC(=O)c1ccccc1NC(=O)c1ccccc1Cl = low group
• NC(=O)SCC(=O)Nc1ccccc1-c1ccccc1 = high group
• O=c1cc(-c2cccnc2)oc2c1ccc1ccccc12 = middle group
• Cc1cc2c(cc1C)Nc1sc(NC(=O)CN3CCN(C)CC3)nc1C(=O)N2 = middle group
• Nc1nc(N)c([N+](=O)[O-])c(=O)[nH]1 = high group
• Nc1nc(SCc2ccccc2Cl)c(-c2ccccc2)c(SCc2ccccc2Cl)n1 = high group
• CC/C(=C\c1ccc(N(C)C)cc1)c1nc2ccccc2c(=O)[nH]1 = middle group
• C/C(=N\N1CC(=O)NC1=O)c1ccc([N+](=O)[O-])o1 = high group
• CCOC(=O)C1=NN(c2ccc(Cl)cc2)C2C3N(c4ccc(Cl)cc4)N=C(C(=O)OCC)N3c3ccccc3N12 (stereo not given) = middle group
• O=C1NCC(Nc2ccc(Br)cc2Cl)C(=O)N1 (stereo not given) = high group
• O=C(CSCC(=O)N/N=C/c1ccccc1O)N/N=C\c1ccccc1O = low group
• O=C(c1nn(-c2ccc(Cl)cc2)cc1O)n1nc(C(F)(F)F)cc1-c1ccccc1 = low group
• Clc1ccc([C@@H]2C[C@@H]3Cc4cc(Br)c5ccccc5c4N2O3)c(Cl)c1 = middle group
• O=C(C(=O)N1CCCCC1)c1ccc(OC2OC(CO)C(O)C(O)C2O)cc1 (stereo not given) = high group
• COc1ccc(CCN2CCCN3C2=Nc2ccccc2S3(=O)=O)cc1 = middle group
• Cn1[nH]cc(/C=N/C(N)=O)c1=O = high group
• COc1cc(C2C=C(c3ccc(C)cc3)Nc3nc(SC)[nH]c(=O)c32)ccc1Oc1ccnc2cc(Cl)ccc12 (stereo not given) = middle group
• c1ccc(Nc2nnc(-c3cc(-c4cccnc4)n(-c4ccccc4)n3)s2)cc1 = middle group
• O=C(Nc1ccccc1Cl)c1cnc2ccc(C3CCNCC3)cn12 = high group
• COC(=O)C[C@@H]1CC=CC(=O)/C1=C(O)/C=C/c1ccccc1 = low group
• O=Nc1ccc(O)c(=O)cc1 = low group
• Cc1cc(Cl)ccc1Nc1nc(C(F)(F)F)ccc1C(=O)NCC(=O)N/N=C/c1c(Cl)cccc1Cl = middle group
• CCCCCCCCCCCCCCCCCC1=NC(C)(C)CN1CCO = low group
• Cc1cc(NCCCNc2ccnc3cc(Cl)ccc23)nc(N2CCN(C)CC2)n1 = low group
• COc1cc(OC)c2sc(-c3ccc(-n4cncc4-c4ccc(N)cc4)cc3)nc2c1 = middle group
• c1cnc2n[nH]c(Nc3ncnc4c3sc3ncccc34)c2c1 = high group
• O=C(Nc1ccncc1)C(=O)c1cn(S(=O)(=O)c2cccc(F)c2)c2ccccc12 = low group
• O=C(C=C=Nc1ccccc1)C(=O)N=C=Cc1ccccc1 = low group
• Cc1cc(C(=O)O)c(C)cc1C(=O)O = high group
• CN(C)c1ccc(/C=C\c2ccnc3ccccc23)cc1 = low group
• CCCc1cccc(CCC)c1O = high group
• O=C(OCCBr)c1ccc(Cl)c([N+](=O)[O-])c1 = middle group
• CN(C)CCCN1c2nc3ccccc3cc2Sc2cc3ccccc3nc21 = low group
• CSc1nnc(C2=CC(=O)c3ccccc3C2=O)n1-c1ccccc1 = middle group
• C=CCOc1ccc2c(c1)CC[C@@H]1[C@@H]2CC[C@@]2(C)[C@H]1CC[C@]2(C)O = middle group
• COc1cc(/C=C/C(=O)c2c(-c3ccc(F)cc3)nc3sc(C)nn23)cc(OC)c1OC = low group
• C[n+]1ccc(C#N)c2ccccc21 = middle group

---

System: M14 melanoma
Assay: NCI-60 one-dose screen, 48 h
Conditions: 10 µM unless noted
This is part of a sample that, as a whole, favours compounds with a hit. Of some 83,000 tested, about 20% had one in any assay. Calls of active or inactive are those of the source. The calls were made as follows: active = growth percent below 10; inactive = the rest.
Possible outcomes: 1 for active, -1 for inactive

• CN(CC(=O)N(Cc1ccc(C2CCCCC2)cc1)c1ccc(C(=O)O)cc1)S(=O)(=O)c1c(F)c(F)c(F)c(F)c1F = -1
• O=C1C(Cl)=C(N=Nc2c(Cl)c(O)c3ccccc3c2O)C(=O)c2ccccc21 = -1
• Cn1cc(-c2csc(-c3cn(C)c4ncccc34)n2)c2cc(F)cnc21 = -1
• O=C(Nc1cccc(-n2cc(-c3ccncc3)c(-c3ccc(O)c(Cl)c3)n2)c1)Nc1ccc(Cl)c(C(F)(F)F)c1 = 1

---

System: CCRF-CEM leukemia
Assay: NCI-60 one-dose screen, 48 h
Conditions: 10 µM unless noted
The panel holds about 83,000 compounds, 20% with a hit somewhere; the sample as a whole holds those more often. Active and inactive are the calls of the source. Rule for the calls: active = growth percent below 10; inactive = the rest.
Possible outcomes: yes (1) (active), no (0) (inactive)

• O=C(CSCC(=O)N/N=C/c1ccccc1O)N/N=C\c1ccccc1O = yes (1)
• C[C@@H]1CC[C@H]2[C@@H](C)C(O)O[C@@H]3O[C@]4(C)CC[C@@H]1[C@]32OO4 (stereo not given in full) = no (0)
• O=C(COC(=O)[C@H](C[Se][Se]C[C@H](NC(=O)c1ccc(Br)cc1F)C(=O)OCC(=O)c1ccc(F)cc1)NC(=O)c1ccc(Br)cc1F)c1ccc(F)cc1 = yes (1)
• Cc1cc(N2CCOCC2)nc(N2CCOCC2)n1 = no (0)
• CCN(CC)CCCNCCCNc1cc(OC)cc2cccnc12 = no (0)
• C=C(C)[C@H]1CC/C(C)=C/CC[C@]2(C)O[C@H]2CC/C(C=O)=C\C1O (stereo not given in full) = no (0)
• NNC(=O)NO = no (0)
• CCC(CCC(C)C1CCC2C3CC=C4CC(O)CCC4(C)C3CCC12C)C(C)C (stereo not given) (tested in a mixture with another compound) = no (0)
• Nc1cc(Cl)c(S(N)(=O)=O)cc1S(N)(=O)=O = no (0)
• CN1CCN(CC(=O)Nc2nc3c(s2)Nc2cc(Cl)c(Cl)cc2NC3=O)CC1 = no (0)
